From: patent US10660334B2

System: Musca domestica
procedure summary: Musca domestica test
Type: in vivo
run parameters: application rate 100 ppm, adult houseflies, after 2 days
This listing pairs compounds with measured efficacy (kill).
Kindly answer with a numeric value in %, unit omitted.

Check out these entries, answers already filled in.
compound	tested on	quantitative readout
CCS(=O)(=O)c1c(-c2nc3cc(C(F)(F)F)ncc3n2C)nc2n1CC(C)CC2 (stereo not drawn)	Musca domestica	100
CCS(=O)(=O)c1c(-c2nc3cc(C(F)(F)F)ccc3n2C)nc2n1CCCC2	Musca domestica	90
Cn1c(-c2nc3n(c2S(C)(=O)=O)CCCC3)nc2cc(C(F)(F)C(F)(F)F)ncc21	Musca domestica	80
CCS(=O)(=O)c1c(-c2nc3cc(C(F)(F)F)cnc3n2C)nc2n1CCCC2	Musca domestica	80
CCS(=O)(=O)c1c(-c2nc3cc(C(F)(F)F)ncc3n2C)nc2n1CCC(C)C2 (stereo not drawn)	Musca domestica	100

// below: efficacy (kill) requested for another compound
Dear colleague, I am looking for the recorded efficacy (kill) of the following compound: `Cn1c(-c2nc3n(c2S(C)(=O)=O)CCCC3)nc2cc(C(F)(F)F)cnc21` 100
